# METHOD SUMMARY: Soluble aggregates of transiently expressed antibodies
# Assay type: physicochemical
# DETAILS: Protein A purified antibody

MOLECULE	% soluble aggregate [%]
J1-65D variant 8: humanised/de-immunised J1-65D: J1-65D_VL_2 + J1-65D_VH_4 (antibody, V domains shown) VH: QVQLVQSGAEVKKPGSSVKVSCKASGYTFTDYEMHWVRQAPGQGLEWMGAIQPGGGGTAYAQKFQGRVTITADKSTSTAYMELSSLRSEDTAVYYCTRRGYDDYPFAYWGQGTLVTVSSASTKGP VL: DIQMTQSPSSLSASVGDRVTITCRASGNIHNYLAWYQQKPGKAPKLLIYNAKTLADAVPSRFSGSGSGTDYTLTISSLQPEDFATYYCQHFWSAPWTFGGGTKLEIKRT	0
J1-183D variant 16: humanised/de-immunised J1-183D: J1-183D_VL_4 + J1-183D_VH_4 (antibody, V domains shown) VH: QVQLVQSGAEVKKPGASVKVSCKASGYTFTDYAIHWVRQAPGQGLEWMGIINTYYGDSKYAQKFQGRVTMTVDTSTSTAYMELSSLRSEDTAVYYCARGYDGFAYWGQGTLVTVSSASTKGP VL: DIQMTQSPSSLSASVGDRVTITCRTSENIYSYLTWYQQKPGKAPKLLIYHAKILDSGVPSRFSGSGSGTDFTLTISSLQPEDFATYYCQHHYDIPWTFGGGTKLEIKRT	0.72

// data source = patent US9725518B2
